Item-by-item account of TGI
System: RPMI-8226 leukemia
METHOD_DESCRIPTION: NCI tumour cell line growth inhibition, 48 h

Take a look at these entries with their results.
| COMPOUND | PROPERTY_MEASURED | RESULT |
| --- | --- | --- |
| CCOC(=O)Oc1c(OC)cc(C(=O)c2ccc(OC)c(OC(=O)CCl)c2OC)cc1OC | TGI | > 100 µM |
| CC1(C)C2CC1C(/C=N\OCC(=O)O)=CC2=O (stereo not given) | TGI | > 100 µM |
| CC(SC(=S)N1CCCC1)C(=O)Nc1nnc(-c2ccc(Cl)cc2)o1 (stereo not given) | TGI | 44.8 µM |

Query: Please report TGI for the following compound: "CN(O)C(=O)c1ccc(OCc2cccc(Cl)c2)cc1"
Response: > 100 µM

Query: Please report TGI for the following compound: "COc1c2c(c(OC)c3c(=O)cc(C/C(=N/NC(=O)C[n+]4ccccc4)C(=O)Nc4cc(C)ccc4C)oc13)OCO2"
Response: > 100 µM

---

Test system: HCT-15 colon
METHOD_DESCRIPTION: NCI tumour cell line growth inhibition, 48 h; in the data active means GI50 below about 0.43 µM; inactive means the rest
Write down the outcome that applies. Available outcomes: True (active), False (inactive)

| SMI | DISCRETE_LABEL |
| --- | --- |
| c1ccc(Oc2c3ccccc3nc3ccccc23)cc1 | False |
| COc1cccc2c(Nc3ccc(C(=O)NCCNCCO)cc3)cc(-c3ccccc3)nc12 | False |
| COc1ccc(/C=C(\C#N)n2nnc3cc(Cl)ccc32)cc1 | True |

Query: Entry "O=C(Oc1cccc(Nc2ncnc3ccccc23)c1)c1ccccc1Cl" : call = ?
Response: False

Query: Entry "COc1cc(-c2cc(C(=O)Nc3nc4ccccc4s3)nc3cc(-c4ccccc4)nn23)cc(OC)c1OC" : call = ?
Response: False

---

System: HCT-15 colon
METHOD_DESCRIPTION: NCI tumour cell line growth inhibition, 48 h; in the data active = GI50 below about 0.43 µM; inactive = the rest
Write down the outcome that applies. Available outcomes: label 1 (active), label 0 (inactive)

| SMI | DISCRETE_LABEL |
| --- | --- |
| Cc1ccc(C)c(-n2c(-c3ccc(Br)cc3)csc2=NC(=O)c2ccccc2F)c1 | label 0 |

Query: Entry "O=C(Nc1cccc(NS(=O)(=O)c2ccc(F)cc2)c1)c1ccc(-c2ccccc2)cc1" : call = ?
Response: label 0

Query: Entry "Cc1c(C(=O)N/N=C/c2ccc(O)cc2)nnn1-c1ccnc2c(C(F)(F)F)cccc12" : call = ?
Response: label 0

Query: Entry "COc1ccc(/C=C/C(=O)/C=C(/C=C/c2ccc(OC)c(OC)c2)OB(F)F)cc1OC" : call = ?
Response: label 1

Query: Entry "C=C(CN1CCc2ccccc2C1)c1ccc(/C=C/C(=O)Nc2ccccc2N)cc1" : call = ?
Response: label 0

---

System: NCI-H226 lung
METHOD_DESCRIPTION: NCI tumour cell line growth inhibition, 48 h
Item-by-item account of TGI
Your answer should be a plain number; it is taken to be in µM.

Take a look at these entries with their results.
| COMPOUND | PROPERTY_MEASURED | MEASUREMENT_UNIT | NUMBER |
| --- | --- | --- | --- |
| COC(=O)C1=C(O)C(C(=O)OC)[C@]2(O)[C@H](C(=O)OC)[C@H]1C[C@@H](c1ccc(Cl)cc1Cl)[C@H]2C(=O)OC (stereo not given in full) | TGI | µM | 16.3 |
| O=C(CCl)Nc1ccccc1SCc1cc(Cl)cc2c1OCOC2 | TGI | µM | 35.6 |
| N#Cc1c(-c2cccc(Br)c2)cc(-c2ccc(Cl)cc2)nc1N | TGI | µM | 38.1 |

Attention now turns to another entry.
Query: Please report TGI for the following compound: "NCCCn1c2c(c3ccccc3c1=O)C(=O)c1cc3c(cc1-2)OCO3"
Response: 3.48

---

Test system: UACC-62 melanoma
METHOD_DESCRIPTION: NCI tumour cell line growth inhibition, 48 h
Item-by-item account of TGI

| COMPOUND | RESULT |
| --- | --- |
| CCOC(=O)C(C)c1nc2cc(F)c(N3CCOCC3)cc2[nH]c1=O (stereo not given) | > 100 µM |
| COc1ccc(-c2cc(-c3ccccc3)c3c(n2)-c2ccccc2NC(=O)C3)cc1 | > 100 µM |
| N/C(=N\Nc1cccc(Cl)c1)c1cccnc1 | > 100 µM |
| COc1ccc(/C=C/C(=N/NC(=O)N/N=C(/C=C/c2ccc(OC)cc2)C(C)C)C(C)C)cc1 | > 100 µM |

Attention now turns to another entry.
Query: Please report TGI for the following compound: CCC(C)C1=C(O)[N+]2([O-])Oc3ccc(-c4c(O)c(O)c(-c5ccc(O)cc5)c(OC(C)=O)c4OC(C)=O)cc3OC2(C(C)CC)C(=O)N1O (stereo not given)
Response: > 50 µM

---

Item-by-item account of TGI
System: A549 NSCLC
METHOD_DESCRIPTION: NCI tumour cell line growth inhibition, 48 h

Take a look at these entries with their results.
| COMPOUND | RESULT |
| --- | --- |
| CCOC(=O)Nn1cnnc1Cc1ccccc1 | > 100 µM |
| COc1ccc(-n2c(-c3ccc(NC(=O)CCCl)cc3)nnc2-c2cc(OC)c(OC)c(OC)c2)cc1 | 11.2 µM |
| N.N.NCCCCN.O=C([O-])CC(=O)[O-].O=C([O-])CC(=O)[O-].[Pt+4].[Pt+4] | > 100 µM |

Query: Please report TGI for the following compound: COCC1N=C(c2ccc(OC)c(OCc3ccccc3)c2OC)O[C@H]1c1ccccc1 (some centres undefined)
Response: > 100 µM

Query: Please report TGI for the following compound: "O=C1C(Cl)=C(Oc2ccccc2)C(=O)c2ccccc21"
Response: 51.8 µM

Query: Please report TGI for the following compound: C[C@@H]1C(=O)O[C@@H]2C[C@@]1(C)[C@@H]1C(=O)C3(O)OC14C2(C)OC(=O)[C@@]4(O)CCC1C3C(O)C=C2CC=CC(=O)[C@@]21C (some centres undefined)
Response: > 100 µM

Query: Please report TGI for the following compound: "COc1ccc(-c2nc3sccn3c2/C=C/C(=O)c2cc(OC)c(OC)c(OC)c2)cc1OC"
Response: 6.03 µM

Query: Please report TGI for the following compound: O=C1C2c3[nH]c4ccccc4c3C3CCSCC3C2C(=O)N1c1ccccc1 (centres undefined)
Response: > 100 µM

Query: Please report TGI for the following compound: "O=C(O)C(Cc1ccccc1-c1ccccc1)C(=O)O"
Response: > 100 µM

---

System: HT29 colon
METHOD_DESCRIPTION: NCI tumour cell line growth inhibition, 48 h; in the data active = GI50 below about 0.43 µM; inactive = the rest
Write down the outcome that applies. Available outcomes: true (1) (active), false (0) (inactive)

Answered cases to consult:
| MOLECULE | DISCRETE_LABEL |
| --- | --- |
| N.N.NCCCCN.O=C([O-])CC(=O)[O-].O=C([O-])CC(=O)[O-].[Pt+4].[Pt+4] | false (0) |
| Cc1ccc2c(/C=C/C(=O)c3cc(CN4CCOCC4)c(O)c4nc(C)ccc34)cc(CN3CCOCC3)c(O)c2n1 | false (0) |
| COc1ccc2c(CN3CCC(CO)CC3)cc3cc4c(cc3c2c1)OCO4 | true (1) |
| O=C(CSc1nc2ccc([N+](=O)[O-])cc2[nH]1)Nc1cccc(C(F)(F)F)c1 | false (0) |
| C[C@@H](Oc1cc(-c2cnn(C3CCNCC3)c2)cnc1N)c1c(Cl)ccc(F)c1Cl | false (0) |

Query: Entry "COc1ccc(/C=C(\C#N)n2nnc3cc(Cl)ccc32)cc1" : call = ?
Response: true (1)

Query: Entry "NCCCn1c2c(c3ccccc3c1=O)C(=O)c1cc3c(cc1-2)OCO3" : call = ?
Response: true (1)

Query: Entry "CCN(CC)c1ccc2[nH]c3c(C(N)=O)cc(=O)c(=O)c=3oc2c1" : call = ?
Response: false (0)

Query: Entry "COc1cccc2c(Nc3ccc(C(=O)NCCNCCO)cc3)cc(-c3ccccc3)nc12" : call = ?
Response: false (0)

Query: Entry "O=C1C(Cl)=C(Oc2ccccc2)C(=O)c2ccccc21" : call = ?
Response: false (0)

Query: Entry "O=C1c2cccnc2-c2nc(-c3ccccn3)cc3c2c1nc1ccccc13" : call = ?
Response: false (0)

Query: Entry "O=C(CCl)Nc1ccccc1SCc1cc(Cl)cc2c1OCOC2" : call = ?
Response: false (0)

Query: Entry "COC(=O)c1ccc(-c2nc3cc(F)c(F)cc3nc2C#N)cc1" : call = ?
Response: false (0)

---

Tested on: NCI/ADR-RES ovarian
METHOD_DESCRIPTION: NCI tumour cell line growth inhibition, 48 h; in the data active = GI50 below about 0.43 µM; inactive = the rest
Write down the outcome that applies. Available outcomes: active, inactive

| SMI | DISCRETE_LABEL |
| --- | --- |
| O=C(CSc1nc2ccc([N+](=O)[O-])cc2[nH]1)Nc1cccc(C(F)(F)F)c1 | inactive |

Query: Entry "O=c1oc2ccccc2c(Cl)c1Cl" : call = ?
Response: inactive

Query: Entry "O=C(Oc1cccc(Nc2ncnc3ccccc23)c1)c1ccccc1Cl" : call = ?
Response: inactive

Query: Entry "COc1ccc(/C=C\c2cc(OC)c(OC)c(OC)c2)cc1NC(=O)[C@@H](N)CO" : call = ?
Response: active
